- Tested on: HCC78 cells having ROS1 fusion gene
- test-method-notes: HCC78 cell growth assay (CellTiter-Glo)
- Assay type: cell-based
- test-settings: Homo sapiens, HCC78, 72 h, 72 hours culture, 2% FBS medium, luminescence, four separate measurements; read-out: growth inhibitory effect on HCC78 cells having ROS1 fusion gene IC50
pIC50: −log10 of the molar value.
observation-type: pIC50

C[C@@H](Nc1ccc2ncc(-c3ccc(OCC4(N)CC4)cc3)n2n1)c1cccc(F)c1    7.00 to 7.70
C[C@@H](Oc1ccc2ncc(-c3ccc(N4C[C@H](N)CC4=O)cc3)n2n1)c1cccc(F)c1    7.00 to 7.70
c1ccc(CNc2ccc3ncc(-c4cccc(OC[C@@H]5CCCN5)c4)n3n2)cc1    6.22 to 7.00
Fc1cccc(COc2ccc3ncc(-c4ccc(OC[C@H]5CCCN5)cc4)n3n2)c1    6.22 to 7.00
CNCCCOc1cccc(-c2cnc3ccc(N[C@H](C)c4cccc(F)c4)nn23)c1    7.00 to 7.70
Cc1cc(-c2cnc3ccc(OC(C)c4cncc(F)c4)nn23)ccc1N1C[C@@H](N)CC1=O (some centres unmarked)    7.00 to 7.70
c1ccc(CNc2ccc3ncc(-c4cccc(O[C@@H]5CCNC5)c4)n3n2)cc1    6.22 to 7.00

Please find the next molecule below.
(Q) Fill in: pIC50 of CC(Oc1ccc2ncc(-c3ccc(N4C[C@@H](N)CC4=O)cc3)n2n1)c1cc(F)cnc1F (some centres unmarked) is ___
(A) > 7.70
